Taken from patent US20260042769A1.

Listing: pEC50 of selected molecules
Test target: human ADRA2B receptor (Homo sapiens, UniProt P18089)
Construct: expressed in transfected cells
Sequence (P18089 1-450): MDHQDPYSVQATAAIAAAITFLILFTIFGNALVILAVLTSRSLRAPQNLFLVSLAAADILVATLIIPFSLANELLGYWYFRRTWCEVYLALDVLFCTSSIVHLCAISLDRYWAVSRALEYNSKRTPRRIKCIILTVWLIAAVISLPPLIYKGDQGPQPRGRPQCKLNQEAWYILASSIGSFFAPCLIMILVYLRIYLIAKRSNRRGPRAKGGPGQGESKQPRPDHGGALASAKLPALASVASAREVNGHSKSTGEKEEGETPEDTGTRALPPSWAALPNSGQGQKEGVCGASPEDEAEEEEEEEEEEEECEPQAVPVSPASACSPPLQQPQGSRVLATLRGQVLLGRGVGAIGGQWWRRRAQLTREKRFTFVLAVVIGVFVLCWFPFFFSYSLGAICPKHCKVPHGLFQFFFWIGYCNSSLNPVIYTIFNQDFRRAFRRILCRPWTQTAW
Protocol notes: ADRA2B arrestin agonist assay
Format: cell-based
Condition summary: CHO-K1 cells stably expressing human ADRA2B; read-out: Beta-Arrestin - Human Alpha2B EC50
pEC50: −log10 of the molar value.

Some molecules with recorded pEC50:
Molecule	Assay endpoint	Reported value
COc1ncc(CC(c2c[nH]cn2)c2cccc(C)c2C)cn1 (stereo not shown)	pEC50	6.30 to 7.30
Cc1nccc(C[C@H](c2c[nH]cn2)c2cccc3c2OCCCO3)n1	pEC50	< 6.30
Cc1cccc(C(Cc2ccn3ccnc3c2)c2c[nH]cn2)c1C (stereo not shown)	pEC50	7.30 to 8.00

Given the molecule "Cc1cccc([C@H](Cc2cccc(CF)n2)c2c[nH]cn2)c1C" and test system human ADRA2B receptor (Homo sapiens, UniProt P18089), the measured pEC50 is 6.30 to 7.30

Given the molecule "COCn1ccc(C[C@H](c2c[nH]cn2)c2cccc(C)c2C)n1" and test system human ADRA2B receptor (Homo sapiens, UniProt P18089), the measured pEC50 is > 8.00

Given the molecule COc1nccc(CC(c2cccc(Cl)c2)c2c[nH]cn2)n1 (stereo not shown) and test system human ADRA2B receptor (Homo sapiens, UniProt P18089), the measured pEC50 is 6.30 to 7.30

====

Test target: human ADRA2B receptor (Homo sapiens, UniProt P18089)
Construct: expressed in transfected cells
Protocol notes: ADRA2B arrestin agonist assay
Assay type: cell-based
Condition summary: CHO-K1 cells stably expressing human ADRA2B; read-out: Beta-Arrestin - Human Alpha2B EC50
pEC50: −log10 of the molar value.
Listing: pEC50 of selected compounds

Quick note, pEC50 for Cc1cccc(C(Cc2ccnn2C)c2c[nH]cn2)c1Cl (stereo not drawn) landed at > 8.00

Quick note, pEC50 for Cc1cnc(CC(c2c[nH]cn2)c2cccc(C)c2C)s1 (stereo not drawn) landed at > 8.00

Quick note, pEC50 for Cc1cccc(C(Cc2ccnc(C(C)C)n2)c2c[nH]cn2)c1C (stereo not drawn) landed at > 8.00

Quick note, pEC50 for COCc1cccc(CC(c2c[nH]cn2)c2cccc(C)c2C)n1 (stereo not drawn) landed at > 8.00

Quick note, pEC50 for Cc1nccc(CC(c2c[nH]cn2)c2cccc3c2OCCO3)n1 (stereo not drawn) landed at > 8.00

Quick note, pEC50 for CNC(=O)c1ccc(CC(c2c[nH]cn2)c2cccc(C)c2C)cn1 (stereo not drawn) landed at > 8.00
